experimental.target: Ubiquitin carboxyl-terminal hydrolase 2 (Homo sapiens)
experiment.description: qHTS for Inhibitors of Ubiquitin-specific Protease USP2a Using CHOP2 as the Reporter: K484 Substrate (AID 652173);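 note: cleavage of internally quenched K48 di-ubiquitin substrate measured as rising fluorescence over time; potency is the fitted concentration of half-maximal effect; nearly all actives have a fitted effect of over 70% in size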
measurement.setup: USP2 cleavage of DiUb K48 IQF substrate, fluorescence; series mostly up to 57.5 µM
Records with an inconclusive call do not appear. Activity calls are given as the source filed them. Calls come from the whole dose curve; as a rule, active = well fitted inhibition curve with a large enough effect; inconclusive = small, poorly fitted or top-dose-only effect; inactive = flat fitted curve, though single readings scatter.
attribute.measured: Potency

What reported Potency corresponds to `Cc1ccc(S(=O)(=O)Nc2cnccc2C(=O)Nc2ccc(C#N)cc2)cc1` on Ubiquitin carboxyl-terminal hydrolase 2 (Homo sapiens)? 21.7 µM (active)

Please give the result for `N#Cc1ccccc1S(=O)(=O)Nc1cnccc1C(=O)Nc1nc(-c2ccccc2)cs1` too. 7.69 µM (active)

Please give the result for `O=C(Nc1nc(-c2ccccc2)cs1)c1ccncc1NS(=O)(=O)c1ccc(F)cc1` too. 3.06 µM (active)

Please give the result for `O=S(=O)(Nc1nccs1)c1ccc(Nc2nc(-c3ccc(Cl)c(Cl)c3)cs2)cc1` too. 27.3 µM (active)

Please give the result for `O=C(Nc1nc(-c2ccccc2)cs1)c1ccncc1NS(=O)(=O)c1cccs1` too. 3.43 µM (active)

Please give the result for `Cc1ccc(-c2cc(C(=O)Nc3ccc(S(=O)(=O)Nc4ccccn4)cc3)c3ccccc3n2)cc1C` too. 4.32 µM (active)

Please give the result for `O=C(Nc1nc(-c2ccc(F)cc2)cs1)c1ccncc1NS(=O)(=O)c1ccccc1Cl` too. 3.06 µM (active)

Please give the result for `O=C(Nc1nc(-c2ccccc2)cs1)c1ccncc1NS(=O)(=O)c1ccc2c(c1)CCC2` too. 1.93 µM (active)

Please give the result for `Cc1ccc(S(=O)(=O)Nc2cnccc2C(=O)Nc2nc(-c3ccccc3F)cs2)cc1` too. 2.17 µM (active)

* * *

experiment.description: qHTS assay for small molecule agonists of the antioxidant response element (ARE) signaling pathway measured by Nrf2-dependant transcriptional activity (AID 720636);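 for activation: HepG2 cells with an ARE-driven luciferase reporter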
measurement.setup: ARE-luc HepG2, Nrf2 luciferase reporter, 16 h; series mostly up to 92.4 µM
Records with an inconclusive call do not appear. The source made the active and inactive calls. Calls come from the whole dose curve; as a rule, active = well fitted activation curve with a large enough effect in the repeat runs; inconclusive = weak or mixed curves; inactive = flat fitted curve, though single readings scatter.
Pick one: active, inactive

Per the assay record, what outcome was assigned to `CC(C)Nc1nc(N)nc(Cl)n1` ? inactive

Please give the result for `O=C(O)CN(CCO)CCN(CC(=O)O)CC(=O)O` too. inactive

Please give the result for `CO/N=C1\C[C@]2(C[C@@H]3C[C@@H](C/C=C(\C)C[C@@H](C)/C=C/C=C4\CO[C@@H]5[C@H](O)C(C)=C[C@@H](C(=O)O3)[C@]45O)O2)O[C@H](/C(C)=C/C(C)C)[C@H]1C` too. inactive

Please give the result for `O=C(O)C(c1ccc(Cl)cc1)c1ccc(Cl)cc1` too. inactive

Please give the result for `O=[N+]([O-])C(CO)(CO)CO` too. inactive

Please give the result for `CCOCCOCCOCCO` too. inactive

Please give the result for CC(=O)/C=C/C1C(C)=CCCC1(C)C (stereo not drawn) too. inactive

Please give the result for `COC(=O)CSc1cc(N=c2sc(=O)n3n2CCCC3)c(F)cc1Cl` too. inactive

Please give the result for `C=CCCCCCCCCCCCC` too. inactive

Please give the result for `C/C=C/C=C/CCCCCCCO` too. inactive

Please give the result for `Cc1ccc(N=Nc2c(O)ccc3ccccc23)c(C)c1` too. active

Please give the result for `CS(=O)(=O)c1ccc(Cl)cc1` too. inactive

Please give the result for `O=C1CCC(C2CCCCC2)CC1` too. inactive

Please give the result for `COc1ccc(OC)c(OC)c1` too. inactive

Please give the result for `CCCCCCCCC(=O)O` too. inactive

Please give the result for `CCCCCCCCCC[N+](C)(C)Cc1ccccc1` too. inactive

Please give the result for `Cc1c(Cl)cccc1Cl` too. inactive

Please give the result for `C=C(C)C(=O)OCCN(C)C` too. inactive

Please give the result for `C=C(C)C(=O)OCCCCCCCCCCCCCCCC` too. inactive

Please give the result for `COc1nc(C)nc(NC(=O)NS(=O)(=O)c2ccccc2OCCCl)n1` too. inactive

Please give the result for `CCCCCCCCCCCCN` too. inactive

Please give the result for `CCOc1ccc(NC(=O)OC(C)C)cc1OCC` too. inactive

Please give the result for `CCSC(=O)N(CC(C)C)CC(C)C` too. inactive

Please give the result for `Nc1c(N=Nc2ccc(S(=O)(=O)CCOS(=O)(=O)O)cc2)c(S(=O)(=O)O)cc2cc(S(=O)(=O)O)c(N=Nc3ccc(S(=O)(=O)CCOS(=O)(=O)O)cc3)c(O)c12` too. inactive

Please give the result for `CCCCCCCCCCCCCc1ccccc1` too. inactive

Please give the result for `CCCCOCCOCCOC(C)=O` too. inactive

Please give the result for `O=C1CCCC/C=C/CCCCCCCCCO1` too. inactive

Please give the result for `CN(C)c1ccc(C(c2ccccc2)c2ccc(N(C)C)cc2)cc1` too. inactive

Please give the result for `C=CC(=O)OCCOCC(CC)(COCCOC(=O)C=C)COCCOC(=O)C=C` too. active

Please give the result for `Cn1c(=O)[nH]c(=O)n(C2CCCCC2)c1=O` too. inactive

Please give the result for `C=Cc1ccccc1Br` too. inactive

Please give the result for `CCCCCCCCCCCCCCCCN(C)C` too. inactive

Please give the result for `CCCCCCCC/C=C\CCCCCCCCO` too. inactive

Please give the result for `CCCCNS(=O)(=O)c1ccccc1` too. inactive

Please give the result for `CN(C)Cc1cc(CN(C)C)c(O)c(CN(C)C)c1` too. inactive

Please give the result for CCNc1nc(NC(C)CC)nc(OC)n1 (stereo not drawn) too. inactive

Please give the result for `CO[Si](CCCNCCN)(OC)OC` too. inactive

Please give the result for CC[C@H](C)C1O[C@]2(C=C[C@@H]1C)C[C@@H]1C[C@@H](C/C=C(\C)[C@@H](O[C@H]3C[C@H](OC)[C@@H](O[C@H]4C[C@H](OC)[C@H](NC(C)=O)[C@H](C)O4)[C@H](C)O3)[C@@H](C)/C=C/C=C3\CO[C@@H]4[C@H](O)C(C)=C[C@@H](C(=O)O1)[C@]34O)O2 (stereo partly drawn) too. inactive

Please give the result for `O=C(Cl)c1cc(Cl)cc(Cl)c1` too. inactive

Please give the result for `CS(C)=O` too. inactive

Please give the result for `COc1cc(Cl)c(OC)cc1N` too. inactive

Please give the result for `CNc1nc(=O)n(C2CCCCC2)c(=O)n1C` too. inactive

Please give the result for `CC1(C)C(=O)N(Br)C(=O)N1Cl` too. inactive

Please give the result for `N[C@@H]1[C@@H](O)[C@H](O)[C@@H](CO)O[C@H]1O` too. inactive

Please give the result for `O=C(c1ccc(Cl)cc1)c1ccc(Cl)cc1` too. inactive

Please give the result for `COC(=O)c1c(Cl)nn(C)c1S(=O)(=O)NC(=O)Nc1nc(OC)cc(OC)n1` too. inactive

Please give the result for CCCCC(CC)COC(C)=O (stereo not drawn) too. inactive

Please give the result for `CCCCCCCCCC(C)=O` too. inactive

Please give the result for `O=C=NCCCCCCN=C=O` too. inactive

Please give the result for `Cl[Si](Cl)(c1ccccc1)c1ccccc1` too. inactive

Please give the result for CCCCC(CC)CN1C(=O)C2C3C=CC(C3)C2C1=O (stereo not drawn) too. inactive

Please give the result for `C[Si](Cl)(Cl)[Si](C)(Cl)Cl` too. inactive

Please give the result for `COC(=O)c1ccccc1C(=O)O` too. inactive

Reference for the values: PubChem BioAssay (NCATS)
